# Test system: Klebsiella oxytoca 14151
# Run description: MIC, solid dilution method
# Assay type: cell-based
# Test conditions: K. ox 14151, CRE clinical isolate, MHA agar, 37° C., 16-20 hours, read-out: MIC
Experimental endpoint: MIC (mg/L)
Your answer is read as mg/L, so omit the unit and give the number.

Before answering, review these 2 worked examples.
// query Requested read-out: MIC. Entry: CC1(C)[C@H](NC(=O)/C(=N\O[C@@H](COc2ccc(C(=N)N[C@@H]3CCCNC3)cc2)C(=O)O)c2csc(N)n2)C(=O)N1OS(=O)(=O)O [AIC499, reference compound]
// result 0.5

// query Consider the compound shown here: CC1(C)[C@H](NC(=O)/C(=N\O[C@@H](COc2ccc3c(c2)CN(C(=N)NOCCN)C3)C(=O)O)c2csc(N)n2)C(=O)N1OS(=O)(=O)O [Compound 43] What is its recorded MIC?
// result 1

Switching to the query record.
// query Entry CC1(C)[C@H](NC(=O)/C(=N\O[C@@H](COc2ccc3c(c2)CN(C(=N)N[C@@H]2CCCNC2)C3)C(=O)O)c2csc(N)n2)C(=O)N1OS(=O)(=O)O [Compound 41] : reported MIC = ?
// result 0.25
